Target: T1, human Protein S (human, UniProt P07225 42-676)
T1 construct: Called 'full length Protein S' / 'human full-length Protein S'; It was coated on plates (ELISA), Eu-labeled (LANCE) or immobilized on a chip (Biacore); also called PS; full length Protein S
T1 sequence: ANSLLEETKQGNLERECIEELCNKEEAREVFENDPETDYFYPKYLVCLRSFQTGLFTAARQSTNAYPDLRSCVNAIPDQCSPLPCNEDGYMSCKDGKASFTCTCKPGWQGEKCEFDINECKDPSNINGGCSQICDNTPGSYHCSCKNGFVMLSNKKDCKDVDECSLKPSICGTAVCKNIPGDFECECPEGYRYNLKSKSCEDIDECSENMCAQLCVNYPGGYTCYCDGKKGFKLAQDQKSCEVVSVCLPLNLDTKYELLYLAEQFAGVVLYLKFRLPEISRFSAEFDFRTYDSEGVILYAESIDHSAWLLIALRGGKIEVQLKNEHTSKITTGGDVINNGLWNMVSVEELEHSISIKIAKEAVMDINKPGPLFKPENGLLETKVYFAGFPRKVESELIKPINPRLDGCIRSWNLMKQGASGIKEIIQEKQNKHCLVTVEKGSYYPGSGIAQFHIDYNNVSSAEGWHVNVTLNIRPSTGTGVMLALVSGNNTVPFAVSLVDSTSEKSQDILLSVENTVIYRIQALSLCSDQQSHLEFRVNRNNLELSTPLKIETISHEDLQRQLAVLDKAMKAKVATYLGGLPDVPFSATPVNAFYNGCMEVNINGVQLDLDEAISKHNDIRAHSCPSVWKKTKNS
Assay: competition ELISA; Protein S coated; competitor biotinylated tracer JBS0684

BINDER | IC50 (nM)
Ac-TGHVSAGWYDYNADHYREFT-NH2 [JBS2526] | 3.6
Ac-TGHVSAGWYDYNFDSYREFT-NH2 [JBS2661] | 2.8
Ac-TGHVSAGWYDYNFDAYREFT-NH2 [JBS2528] | 5.2
Ac-TGKVSAGWYDYNFDHYREFT-NH2 [JBS2592] | 5.6
Ac-TGHVSAGWYDYNFDDYREFT-NH2 [JBS2546] | 6.8
Ac-TGHVSAGWYDYNFDHYREFT-NH2 [JBS2512] | 3.9
Ac-TGHVSAGWYDYNLDHYREFT-NH2 [JBS2582] | 2.3
Ac-TGHVSAGWYDYNFDLYREFT-NH2 [JBS2584] | 2.7
Ac-GGHVSAGWYDYNFDHYREFT-NH2 [JBS2552] | 5.5
Ac-TGHVSAGWYDYNFDHYFEFT-NH2 [JBS2625] | 1.6
Ac-TGHVSAGWYDYNKDHYREFT-NH2 [JBS2602] | 3.4
